The following compounds are listed with their measured Stability in human serum (%) values.
Test: Stability in human plasma/serum (radiochemical purity by HPLC)
Type: in vitro ADME
Details: 37 °C, incubation time 0 min, n = 1
Write your answer as a measured quantity: the number, then the unit.

Challenge: Look up Stability in human serum (%) for this compound: O=C([O-])CN1CCN(CC(=O)[O-])CCN(CC(=O)N[C@H]2CC[C@H](NC(=O)[C@H](Cc3ccc4ccccc4c3)NC(=O)CC[C@H](NC(=O)N[C@@H](CCC(=O)O)C(=O)O)C(=O)O)CC2)CCN(CC(=O)[O-])CC1.[68Ga+3] [[^68Ga]Ga-P16]
Response given: 99.0%

Challenge: Also check O=C([O-])CN1CCN(CC(=O)[O-])CCN(CC(=O)NCC2CCC(C(=O)NC(Cc3ccc4ccccc4c3)C(=O)NCCCCC(NC(=O)NC(CCC(=O)O)C(=O)O)C(=O)O)CC2)CCN(CC(=O)[O-])CC1.[68Ga+3] (stereo not shown) [[^68Ga]Ga-PSMA-617, reference compound]
Response given: 98.4%

Challenge: Param item: O=C([O-])CN1CCN(CC(=O)[O-])CCN(CC(=O)NCc2ccc(C(=O)N[C@H](C(=O)NCCCC[C@H](NC(=O)N[C@@H](CCC(=O)O)C(=O)O)C(=O)O)C(c3ccccc3)c3ccccc3)cc2)CCN(CC(=O)[O-])CC1.[68Ga+3] [[^68Ga]Ga-P19]
Response given: 99.0%

Challenge: And what about the compound O=C([O-])CN1CCN(CC(=O)[O-])CCN(CC(=O)N[C@H]2CC[C@H](NC(=O)[C@@H](Cc3ccc4ccccc4c3)NC(=O)CC[C@H](NC(=O)N[C@@H](CCC(=O)O)C(=O)O)C(=O)O)CC2)CCN(CC(=O)[O-])CC1.[68Ga+3] [[^68Ga]Ga-P15] ?
Response given: 99.0%
